# tested target: Serine/threonine-protein kinase PAK 2 (Homo sapiens)
result type: IC50

>>> recorded_value("CC(C)NC(=O)N1CC[C@H](N=C2Nc3cc(F)ccc3N(CC(F)F)c3ccc(Cl)cc32)C1")
"270 nM"
